- measuredOn: T1, human TMEM106B (human, UniProt Q9NUM4 2-274)
- T1 construct: full-length, transiently expressed on HEK293 cells, or natively expressed on HeLa, U251 and A549 cells (the cell is named under assay); also the source of the Pepscan peptides; also called huTMEM106B; huTMEM
- testDescription: FACS A549 10 ug/ml
metricName: MFI (MFI)

[[record]]
binder = "TM-52 (antibody, V domains shown, mouse IgG (hybridoma)) VH: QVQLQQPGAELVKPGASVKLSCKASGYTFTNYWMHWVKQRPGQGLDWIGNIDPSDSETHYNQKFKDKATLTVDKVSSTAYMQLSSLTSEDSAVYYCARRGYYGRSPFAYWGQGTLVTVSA VL: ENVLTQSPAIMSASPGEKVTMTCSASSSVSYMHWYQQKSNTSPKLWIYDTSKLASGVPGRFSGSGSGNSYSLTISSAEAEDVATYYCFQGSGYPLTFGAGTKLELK"
metricname = "MFI"
measuredvalue = 443

[[record]]
binder = "TM-26 (antibody, V domains shown) VH: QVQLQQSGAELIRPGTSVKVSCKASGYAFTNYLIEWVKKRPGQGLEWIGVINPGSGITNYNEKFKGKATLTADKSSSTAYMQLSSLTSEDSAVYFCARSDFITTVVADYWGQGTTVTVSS VL: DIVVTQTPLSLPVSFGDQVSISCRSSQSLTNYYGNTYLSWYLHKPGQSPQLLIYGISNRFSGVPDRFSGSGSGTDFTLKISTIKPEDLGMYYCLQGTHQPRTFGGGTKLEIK"
metricname = "MFI"
measuredvalue = 509

